Assay: Thermodynamic solubility in 13 solvents at RT and 50° C. by UPLC
Type: physicochemical
Settings: Hept, organic solvent or mixture, thermodynamic from solid, Hept, RT; read-out: Solubility at RT
Quantity measured: solubility

                        structure_as_smiles      result
0  Cc1ccc(NC(=O)N2CC[C@@H](CC(F)(F)F)C2)cc1-c1cc(N[C@H](C)CO)nc(N2CCOCC2)c1.Cl  0.01 mg/mL

Data provenance is patent US12692248B2.
